The reported measurements were obtained from PubChem BioAssay (Tox21).

EXPERIMENT_NOTES: qHTS assay to identify small molecule agonists of the NFkB signaling pathway - cell viability counter screen (AID 1159515); also: % is scaled to controls: 0 for no effect and ±100 for the full control effect; nearly all actives have a fitted effect of over 55% in size
RUN_PARAMETERS: NFkB-bla ME-180 viability, CellTiter-Glo luminescence, 5 h; series mostly up to 61 µM
Results filed as inconclusive are left out. Activity calls are given as the source filed them. Calls follow the shape of the full dose curve.
QUANTITY: activity, negative = cytotoxic

// below: answered compounds
[
  {
    "COMPOUND": "CC(=O)c1ccc2c(c1)Cc1ccccc1-2",
    "activity, negative = cytotoxic": "inactive"
  },
  {
    "COMPOUND": "CCCCOCCOC(=O)COc1nc(Cl)c(Cl)cc1Cl",
    "activity, negative = cytotoxic": "inactive"
  },
  {
    "COMPOUND": "C=CCCCCCCCCCCCC",
    "activity, negative = cytotoxic": "inactive"
  },
  {
    "COMPOUND": "CC(=O)Nc1cccc(C)c1",
    "activity, negative = cytotoxic": "inactive"
  },
  {
    "COMPOUND": "CCOC(=O)[C@H](CCc1ccccc1)N[C@@H](C)C(=O)N1C(=O)N(C)C[C@H]1C(=O)O",
    "activity, negative = cytotoxic": "inactive"
  }
]

Short answer for CCN(C)C(=O)Oc1cccc([C@H](C)N(C)C)c1 : activity, negative = cytotoxic was inactive

Short answer for CCC(C=O)CC : activity, negative = cytotoxic was inactive

Short answer for O=C(OCc1ccccc1)C(=O)OCc1ccccc1 : activity, negative = cytotoxic was inactive

Short answer for COc1cc(N)ccc1C : activity, negative = cytotoxic was inactive

Short answer for O=Cc1ccc(Cl)c(Cl)c1 : activity, negative = cytotoxic was inactive

Short answer for FC(F)(F)c1ccccc1-n1ccnc1 : activity, negative = cytotoxic was inactive

Short answer for COC(=O)[C@@H]1[C@H]2C[C@H]3c4[nH]c5ccccc5c4CCN3C[C@@H]2CC[C@@H]1O : activity, negative = cytotoxic was inactive

Short answer for Cc1ccc(C=O)cc1C : activity, negative = cytotoxic was inactive

Short answer for CCCCCCCCOS(=O)(=O)O : activity, negative = cytotoxic was inactive

Short answer for CC(C)(C)c1cc(CCC(=O)NN)cc(C(C)(C)C)c1O : activity, negative = cytotoxic was inactive

Short answer for CC(C)NCC(O)COc1ccc(COCCOC(C)C)cc1 (configuration not stated) : activity, negative = cytotoxic was inactive

Short answer for NCCS : activity, negative = cytotoxic was inactive

Short answer for COC(=O)C1CC(=O)C(C(=O)OC)CC1=O (configuration not stated) : activity, negative = cytotoxic was 4.94% [at 6.95 µM] (inactive)

Short answer for COc1ccc2nc(SCc3ncc(C)c(OC)c3C)[nH]c2c1 : activity, negative = cytotoxic was inactive

Short answer for Cc1cc2cc3c(C)cc(=O)oc3c(C)c2o1 : activity, negative = cytotoxic was inactive

Short answer for CCOc1cc(NC(C)=O)ccc1C(=O)OC : activity, negative = cytotoxic was inactive

Short answer for CC(C)C[C@H](NC(=O)CNC(=O)[C@H](Cc1ccc(O)cc1)NC(=O)[C@H](CO)NC(=O)[C@H](Cc1c[nH]c2ccccc12)NC(=O)[C@H](Cc1cnc[nH]1)NC(=O)[C@@H]1CCC(=O)N1)C(=O)N[C@@H](CCCN=C(N)N)C(=O)N1CCC[C@H]1C(=O)NCC(N)=O (stereo in doubt) : activity, negative = cytotoxic was inactive

Short answer for O=C(NCCN1CCOCC1)c1ccc(Cl)cc1 : activity, negative = cytotoxic was inactive

Short answer for CC(COC(C)(C)C)OCCCO (configuration not stated) : activity, negative = cytotoxic was inactive
